- Test Target: PI3Kγ (purified recombinant p101/p110γ protein) (Homo sapiens)
- Construct: HA
- Experiment Notes: PI3Kγ In Vitro Kinase Assay
- Condition: final ATP 20 μM, 25 μM PIP2, G protein β1/γ2 subunits, 20 minutes at room temperature
- Experimental: Spodtera frugiperda cells, grown in ESF921 media, were co-infected with baculovirus expressing a glu-tagged p101 and baculovirus expressing an HA-tagged p110γ, at a 3:1 ratio of p101 baculovirus to p110γ baculovirus. Sf9 cells were grown to 1×10^7 total cells/mL in 10 L bioreactors and harvested 48-72 hours post infection. Samples of infected cells were then tested for expression of p101/p110γ PI3 kinase by immunoprecipitation and Western Blot analysis methods (see below). […]
We label by threshold. Values of IC50 strictly beneath 200 nM are Satisfied. Values of 200 nM and up are Not satisfied.

See these solved cases before continuing.
{"columns": ["Compound", "Test Target", "Classification"],
 "data": [
  ["Cc1nc(Nc2cc(C(=O)O)n(C)c2)nc2c1ccc(=O)n2C1CC1", "PI3Kγ (purified recombinant p101/p110γ protein) (Homo sapiens)", "Satisfied"],
  ["Cc1nc(Nc2ccn(CC(=O)O)c2)nc2c1ccc(=O)n2C1CCCCCC1", "PI3Kγ (purified recombinant p101/p110γ protein) (Homo sapiens)", "Not satisfied"],
  ["CCc1nc(Nc2cc(C(=O)OC)n(C)c2)nc2c1ccc(=O)n2C1CCCCCC1", "PI3Kγ (purified recombinant p101/p110γ protein) (Homo sapiens)", "Not satisfied"],
  ["CCOC(=O)c1cc(Nc2nc(C)c3ccc(=O)n(C)c3n2)cn1C(C)c1ccccc1 (centres unmarked)", "PI3Kγ (purified recombinant p101/p110γ protein) (Homo sapiens)", "Satisfied"]
]}

Now for a further compound.
Task item: Please determine if `Cc1nc(Nc2cc(C(=O)O)n(C)c2)nc2c1ccc(=O)n2C1CCC1` is below 200 nM in terms of IC50.
Reply: Satisfied

====

- Test Target: PI3Kγ (purified recombinant p101/p110γ protein) (Homo sapiens)
- Construct: HA
- Experiment Notes: PI3Kγ In Vitro Kinase Assay
- Condition: final ATP 20 μM, 25 μM PIP2, G protein β1/γ2 subunits, 20 minutes at room temperature
pIC50: −log10 of the molar value.
Decide by pIC50: equal to or exceeding 8 means 1.0, less means 0.0.

Record excerpt, results attached:
{"columns": ["Compound", "Classification"],
 "data": [
  ["COC1CCC(n2c(=O)c(F)cc3c(C)nc(Nc4cc(C(=O)O)n(C)c4)nc32)CC1 (centres unmarked) [Example 27]", 0.0],
  ["COC(=O)c1cc(Nc2nc(C)c3ccc(=O)n(C4CCCCC4)c3n2)cn1C [Example 6]", 1.0],
  ["Cc1nc(Nc2cc(C(=O)O)n(C)c2)nc2c1ccc(=O)n2C1CCCCC1 [Example 38]", 0.0]
]}

Task item: For this compound, is measured pIC50 8 or higher? Cc1nc(Nc2cc(C(=O)O)n(C)c2)nc2c1ccc(=O)n2C1CCOCC1 [Example 19]
Reply: 0.0

Task item: Now consider Cc1nc(Nc2cc(C(=O)O)n(C(C)C)c2)nc2c1ccc(=O)n2C1CCCCCC1 [Example 22] .
Reply: 0.0

====

- Test Target: PI3Kγ (purified recombinant p101/p110γ protein) (Homo sapiens, UniProt P48736)
- Construct: HA
- Sequence (P48736 whole entry, species assumed): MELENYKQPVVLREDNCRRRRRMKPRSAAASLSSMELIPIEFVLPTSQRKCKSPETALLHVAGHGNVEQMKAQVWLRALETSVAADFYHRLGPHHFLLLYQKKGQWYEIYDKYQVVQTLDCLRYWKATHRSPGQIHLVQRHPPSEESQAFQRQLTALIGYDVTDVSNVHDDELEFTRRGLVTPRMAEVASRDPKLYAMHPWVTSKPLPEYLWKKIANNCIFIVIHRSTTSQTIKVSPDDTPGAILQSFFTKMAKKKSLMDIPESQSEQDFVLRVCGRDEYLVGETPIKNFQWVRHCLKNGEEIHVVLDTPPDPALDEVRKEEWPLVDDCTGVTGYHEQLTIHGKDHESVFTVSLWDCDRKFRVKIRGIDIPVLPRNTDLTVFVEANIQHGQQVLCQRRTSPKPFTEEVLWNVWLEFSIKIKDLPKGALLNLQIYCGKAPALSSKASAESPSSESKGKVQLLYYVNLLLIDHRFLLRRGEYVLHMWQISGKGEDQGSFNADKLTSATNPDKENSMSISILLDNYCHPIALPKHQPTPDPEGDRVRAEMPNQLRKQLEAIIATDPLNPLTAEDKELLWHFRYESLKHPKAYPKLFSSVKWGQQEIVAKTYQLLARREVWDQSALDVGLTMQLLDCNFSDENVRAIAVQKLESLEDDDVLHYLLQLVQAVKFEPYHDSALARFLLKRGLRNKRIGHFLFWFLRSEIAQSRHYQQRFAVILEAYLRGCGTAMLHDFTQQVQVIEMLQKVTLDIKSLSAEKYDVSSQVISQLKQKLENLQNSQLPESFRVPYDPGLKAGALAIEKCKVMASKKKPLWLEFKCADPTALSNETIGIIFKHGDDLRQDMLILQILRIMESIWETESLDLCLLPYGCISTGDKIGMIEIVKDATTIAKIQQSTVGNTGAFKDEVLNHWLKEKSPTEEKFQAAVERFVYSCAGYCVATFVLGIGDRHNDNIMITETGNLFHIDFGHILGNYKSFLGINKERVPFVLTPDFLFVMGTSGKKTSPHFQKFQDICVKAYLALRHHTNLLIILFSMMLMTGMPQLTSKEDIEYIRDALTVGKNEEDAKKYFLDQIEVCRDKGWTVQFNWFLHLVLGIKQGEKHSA
- Sequence (Q8WYR1 whole entry partner, species assumed): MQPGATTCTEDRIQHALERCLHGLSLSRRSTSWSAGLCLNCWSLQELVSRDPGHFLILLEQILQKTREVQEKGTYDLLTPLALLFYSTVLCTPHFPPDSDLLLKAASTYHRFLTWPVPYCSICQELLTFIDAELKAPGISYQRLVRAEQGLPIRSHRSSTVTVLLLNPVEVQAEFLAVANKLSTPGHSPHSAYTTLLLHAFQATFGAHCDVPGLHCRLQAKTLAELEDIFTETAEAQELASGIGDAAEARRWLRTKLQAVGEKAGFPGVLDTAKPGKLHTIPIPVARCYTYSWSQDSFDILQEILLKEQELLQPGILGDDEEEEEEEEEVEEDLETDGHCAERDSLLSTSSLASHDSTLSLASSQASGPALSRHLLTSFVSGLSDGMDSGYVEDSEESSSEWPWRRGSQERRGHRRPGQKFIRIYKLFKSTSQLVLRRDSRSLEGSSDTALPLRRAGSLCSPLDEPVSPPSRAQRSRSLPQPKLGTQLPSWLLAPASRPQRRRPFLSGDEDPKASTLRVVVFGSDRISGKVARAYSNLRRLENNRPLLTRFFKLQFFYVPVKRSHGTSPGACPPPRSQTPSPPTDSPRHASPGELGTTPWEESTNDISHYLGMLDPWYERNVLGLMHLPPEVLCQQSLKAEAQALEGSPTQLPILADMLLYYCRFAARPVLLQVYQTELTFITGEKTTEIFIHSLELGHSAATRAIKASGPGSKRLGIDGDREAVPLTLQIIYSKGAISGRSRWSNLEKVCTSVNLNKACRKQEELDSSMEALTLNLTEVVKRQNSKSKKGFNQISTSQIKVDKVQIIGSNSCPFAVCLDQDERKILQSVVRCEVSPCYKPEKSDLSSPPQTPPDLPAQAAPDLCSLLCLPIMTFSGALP
- Experiment Notes: PI3Kγ In Vitro Kinase Assay
- Condition: final ATP 20 μM, 25 μM PIP2, G protein β1/γ2 subunits, 20 minutes at room temperature
Measurement Kind: pIC50
The scale used: pIC50 is minus the common logarithm of the concentration in molar units.

Take a look at these entries with their results.
{"columns": ["Compound", "Assay Value"],
 "data": [
  ["CCOC(=O)c1cc(Nc2nc(C)c3cc(F)c(=O)n(C4CCCC4)c3n2)cn1Cc1cccnc1 [Example 12]", 8.40],
  ["Cc1nc(Nc2cc(C(=O)O)n(C(C)c3ccccc3)c2)nc2c1cc(F)c(=O)n2C1CCCC1 (centres unmarked) [Example 28]", 7.82],
  ["COc1ccc(Cn2c(=O)c(C)cc3c(C)nc(Nc4cc(C(=O)O)n(C)c4)nc32)cc1 [Example 36]", 7.33],
  ["Cc1nc(Nc2cc(C(=O)O)n(C)c2)nc2c1ccc(=O)n2C1CCCCCC1 [Example 15]", 7.48],
  ["CCn1c(=O)c(Cl)cc2c(C)nc(Nc3cc(C(=O)O)n(C)c3)nc21 [Example 31]", 8.30]
]}

Task item: Report pIC50 for COC(=O)c1cc(Nc2nc(C)c3cc(F)c(=O)n(C4CCC(OC)CC4)c3n2)cn1C (centres unmarked) [Example 11] tested on PI3Kγ (purified recombinant p101/p110γ protein) (Homo sapiens, UniProt P48736).
Reply: 8.30

Task item: Now the same for CCOC(=O)c1cc(Nc2nc(C)c3ccc(=O)n(C4CCCCCC4)c3n2)cn1Cc1ccccc1 [Example 7]
Reply: 7.44

Task item: Can you handle COC(=O)c1cc(Nc2nc(C)c3ccc(=O)n(C4CCC4)c3n2)cn1C [Example 4] next?
Reply: 7.89

Task item: What do you get for COC(=O)c1cc(Nc2nc(C)c3ccc(=O)n(C4CC4)c3n2)cn1C [Example 3] ?
Reply: 7.74

Task item: Another compound to look at: COCCn1c(=O)c(-c2cccc(OCc3ccccc3)c2)cc2c(C)nc(Nc3cc(C(=O)OC)n(C)c3)nc21 [Example 34]
Reply: 6.52

Task item: What do you have for COC(=O)c1cc(Nc2nc(C)c3cc(F)c(=O)n(C4CCCC4)c3n2)cn1C [Example 9] ?
Reply: 7.92

====

- Test Target: PI3Kγ (purified recombinant p101/p110γ protein) (Homo sapiens, UniProt P48736)
- Construct: HA
- Experiment Notes: PI3Kγ In Vitro Kinase Assay
- Condition: final ATP 20 μM, 25 μM PIP2, G protein β1/γ2 subunits, 20 minutes at room temperature
Mark Met only for IC50 values smaller than 20 nM; exact matches and larger values are Not met.

Example entries begin here.
{"columns": ["Compound", "Test Target", "Classification"],
 "data": [
  ["CCOC(=O)c1cc(Nc2nc(C)c3cc(F)c(=O)n(C4CCCC4)c3n2)cn1C(C)c1ccccc1 (stereo not drawn) [Example 13]", "PI3Kγ (purified recombinant p101/p110γ protein) (Homo sapiens, UniProt P48736)", "Not met"],
  ["COC(=O)c1cc(Nc2nc(C)c3ccc(=O)n(C4CCOCC4)c3n2)cn1C [Example 5]", "PI3Kγ (purified recombinant p101/p110γ protein) (Homo sapiens, UniProt P48736)", "Not met"],
  ["COCCn1c(=O)c(Br)cc2c(C)nc(Nc3cc(C(=O)O)n(C)c3)nc21 [Example 32]", "PI3Kγ (purified recombinant p101/p110γ protein) (Homo sapiens, UniProt P48736)", "Met"]
]}

Task item: IC50 strictly < 20 nM for this compound? CCc1nc(Nc2cc(C(=O)O)n(C)c2)nc2c1ccc(=O)n2C1CCCCCC1 [Example 20]
Reply: Not met

Task item: Repeat for the following compound: COC(=O)c1cc(Nc2nc(C)c3ccc(=O)n(C4CCCCCC4)c3n2)cn1C [Example 1]
Reply: Not met

Task item: Same read-out for CCn1c(=O)c(Cl)cc2c(C)nc(Nc3cc(C(=O)OC)n(C)c3)nc21 [Example 30] ?
Reply: Met

====

- Test Target: PI3Kγ (purified recombinant p101/p110γ protein) (Homo sapiens)
- Construct: HA; made in house; host or cells: Spodoptera frugiperda Sf9 cells (baculovirus co-infection)
- Experiment Notes: PI3Kγ In Vitro Kinase Assay
- Assay type: biochemical
- Condition: final ATP 20 μM, 25 μM PIP2, G protein β1/γ2 subunits, 20 minutes at room temperature
# IC50 values compiled below
Supply the numeric figure in nM, leaving out any unit text.

Guide cases for IC50, answers given:
{"columns": ["Structure As Smiles", "Test Target", "IC50 (nM)"],
 "data": [
  ["COC(=O)c1cc(Nc2nc(C)c3cc(Cl)c(=O)n(C4CCCC4)c3n2)cn1C", "PI3Kγ (purified recombinant p101/p110γ protein) (Homo sapiens)", 6],
  ["COC(=O)c1cc(Nc2nc(C)c3ccc(=O)n(CCC4CC4)c3n2)cn1C", "PI3Kγ (purified recombinant p101/p110γ protein) (Homo sapiens)", 12]
]}

Task item: I have this compound here, `COc1ccc(Cn2c(=O)c(Br)cc3c(C)nc(Nc4cc(C(=O)O)n(C)c4)nc32)cc1` , and I need its recorded IC50.
Reply: 17

====

Listing: pIC50 of selected compounds
- Test Target: PI3Kγ (purified recombinant p101/p110γ protein) (Homo sapiens, UniProt P48736)
- Construct: HA
- Experiment Notes: PI3Kγ In Vitro Kinase Assay
- Condition: final ATP 20 μM, 25 μM PIP2, G protein β1/γ2 subunits, 20 minutes at room temperature
Remember the convention: pIC50 equals -log10 of concentration in molar.

Consider the following illustrative entries.
{"columns": ["Compound", "pIC50"],
 "data": [
  ["Cc1nc(Nc2cc(C(=O)O)n(C(C)c3ccccc3)c2)nc2c1ccc(=O)n2C (stereo not drawn) [Example 16]", 6.83],
  ["Cc1nc(Nc2cc(C(=O)O)n(C)c2)nc2c1cc(F)c(=O)n2C1CCOCC1 [Example 25]", 7.40],
  ["Cc1nc(Nc2cc(C(=O)O)n(C)c2)nc2c1cc(F)c(=O)n2C1CCCC1 [Example 24]", 8.05],
  ["Cc1nc(Nc2cc(C(=O)O)n(C)c2)nc2c1cc(-c1cccc(OCc3ccccc3)c1)c(=O)n2Cc1ccc(F)cc1 [Example 35]", 6.47],
  ["COC(=O)c1cc(Nc2nc(C)c3cc(F)c(=O)n(CC4CCOCC4)c3n2)cn1C [Example 10]", 8.10]
]}

Task item: Given the entry Cc1nc(Nc2cc(C(=O)O)n(C)c2)nc2c1cc(F)c(=O)n2CC1CCOCC1 [Example 26] , report its measured pIC50.
Reply: 7.60
